B1: LINE1-mini (parent)
chain: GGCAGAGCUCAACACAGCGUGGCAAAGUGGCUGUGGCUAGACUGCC

variants of: B1; test: self-cleavage, relative activity (ratio to wild type); higher = more cleavage; in vitro, sequencing; the parent is a self-cleaving ribozyme
Rule: self-cleavage under 0.1 gives 0.0, otherwise 1.0.

Please review the following examples before continuing.
{"columns": ["MUTANT ID", "CLASS"],
 "data": [
  ["G5C A39U", 0.0],
  ["G5C A41G", 0.0],
  ["G29A G30C", 1.0]
]}

Asked: Given the entry C3U C10U , answer whether its self-cleavage meets or surpasses 0.1.
Given back: 1.0

Asked: API: above_or_equal(metric=self-cleavage, cutoff=0.1) for item A25U G44C
Given back: 1.0

Asked: Given the entry C8A G30A , answer whether its self-cleavage meets or surpasses 0.1.
Given back: 1.0

Asked: Reported self-cleavage at or above 0.1? G2C U43C
Given back: 1.0

src = the RNAGym collection of RNA variant scans (doi:10.7554/elife.90254)
